Cited source: ChEMBL document CHEMBL5137043

Assay: Inhibition of human lysosomal beta-glucosidase assessed as reduction of p-nitrophenol release using p-nitrophenyl-glycoside as substrate by spectrophotometric analysis
Format: subcellular, Lysosome
Please map values of IC50 to classes as shown: category 1 = under 3 µM, category 2 = from 3 µM up to 10 µM, category 3 = 10 µM and over

Worked examples follow.
Structure String	Qualitative Label
O[C@H]1[C@H](O)CN[C@@H]1c1ccc(F)cc1	category 2
O[C@H]1[C@H](O)CN[C@@H]1CCCc1ccccc1	category 2
O[C@H]1[C@H](O)CN[C@@H]1c1ccccc1	category 3
O[C@@H]1[C@@H](O)CN[C@H]1c1ccc(-c2ccccc2)cc1	category 1
Cc1ccc([C@@H]2NC[C@H](O)[C@H]2O)cc1	category 2
Cc1ccc([C@H]2NC[C@@H](O)[C@@H]2O)cc1	category 2

Q) Sort into band: O[C@@H]1[C@@H](O)CN[C@H]1c1ccccc1
A) category 3

Q) Sort into band: O[C@H]1[C@H](CCCc2ccccc2)NC[C@@H]1O
A) category 2

Q) Sort into band: OC[C@H]1NC[C@@H](O)[C@@H]1O
A) category 3

Q) Sort into band: O[C@@H]1[C@@H](O)CN[C@H]1c1ccc(F)cc1
A) category 3

Q) Sort into band: O[C@H]1[C@H](O)CN[C@@H]1c1ccc(-c2ccccc2)cc1
A) category 1
